Measured logD, listed per entry for reference.
experiment: Partition coefficient (logD7.4); settings: octanol/water, pH 7.4

# smilesStr, boundType, logD
data = [
    ("CCCC[C@H](N[C@@H](Cc1ccccc1)C(=O)N1CCC(OCOC)CC1)C(=O)N[C@@H](CC1CCCCC1)[C@@H](O)C[C@H](C(=O)NCCNc1noc(N)n1)C(C)C", "=", 4.11),
    ("CCCC[C@H](N[C@@H](Cc1ccccc1)C(=O)N1CCC(OCOC)CC1)C(=O)N[C@@H](CC1CCCCC1)[C@@H](O)C[C@H](C(=O)NCC(=O)O)C(C)C", "=", 2.8),
    ("CCCC[C@H](N[C@@H](Cc1ccccc1)C(=O)N1CCC(OCOC)CC1)C(=O)N[C@@H](CC1CCCCC1)[C@@H](O)C[C@H](C(=O)NCCN1CCOCC1)C(C)C", ">", 5),
    ("CCCC[C@H](N[C@@H](Cc1ccccc1)C(=O)N1CCC(OCOC)CC1)C(=O)N[C@@H](CC1CCCCC1)[C@@H](O)C[C@H](C(=O)NCCC1CCCCC1)C(C)C", ">", 5),
    ("CCCC[C@H](N[C@@H](Cc1ccccc1)C(=O)N1CCC(OCOC)CC1)C(=O)N[C@@H](CC1CCCCC1)[C@@H](O)C[C@H](C(=O)NCCC[N+]1([O-])CCOCC1)C(C)C", "=", 3.6),
    ("CCCC[C@H](O[C@@H](Cc1ccccc1)C(=O)N1CCC(OCOC)CC1)C(=O)N[C@@H](CC1CCCCC1)[C@@H](O)C[C@H](C(=O)NCCC(=O)O)C(C)C", "=", 2.8),
]

---

assay: Average area under curve at 10 mg/kg dose after intraduodenal administration to Ferret; conditions: in vivo
Classification field: met = AUC at or over 8000 ng·h/mL; not met = AUC under 8000 ng·h/mL.

# smilesStr, category
data = [
    ("CCCC[C@H](N[C@@H](Cc1ccccc1)C(=O)N1CCC(OCOC)CC1)C(=O)N[C@@H](CC1CCCCC1)[C@@H](O)C[C@H](C(=O)NCCCN1CCOCC1)C(C)C", "not met"),
    ("CCCC[C@H](N[C@@H](Cc1ccccc1)C(=O)N1CCC(OCOC)CC1)C(=O)N[C@@H](CC1CCCCC1)[C@@H](O)C[C@H](C(=O)NCCNc1noc(N)n1)C(C)C", "not met"),
    ("CCCC[C@H](N[C@@H](Cc1ccccc1)C(=O)N1CCC(OCOC)CC1)C(=O)N[C@@H](CC1CCCCC1)[C@@H](O)C[C@H](C(=O)NCCC[N+]1([O-])CCOCC1)C(C)C", "not met"),
    ("CCCC[C@H](N[C@@H](Cc1ccccc1)C(=O)N1CCC(OCOC)CC1)C(=O)N[C@@H](CC1CCCCC1)[C@@H](O)C[C@H](C(=O)NCc1ccccn1)C(C)C", "met"),
    ("CCCC[C@H](N[C@@H](Cc1ccccc1)C(=O)N1CCC(OCOC)CC1)C(=O)N[C@@H](CC1CCCCC1)[C@@H](O)C[C@H](C(=O)NCC(C)(C)N1CCOCC1)C(C)C", "met"),
    ("CCCC[C@H](N[C@@H](Cc1ccccc1)C(=O)N1CCC(OCOC)CC1)C(=O)N[C@@H](CC1CCCCC1)[C@@H](O)C[C@H](C(=O)NCc1cccnc1)C(C)C", "met"),
    ("CCCC[C@H](N[C@@H](Cc1ccccc1)C(=O)N1CCC(OCOC)CC1)C(=O)N[C@@H](CC1CCCCC1)[C@@H](O)C[C@H](C(=O)NCCN1CCOCC1)C(C)C", "met"),
    ("CCCC[C@H](N[C@@H](Cc1ccccc1)C(=O)N1CCC(OCOC)CC1)C(=O)N[C@@H](CC1CCCCC1)[C@@H](O)C[C@H](C(=O)NCCN1CCCCC1)C(C)C", "not met"),
]

FYI, the data here is from ChEMBL document CHEMBL1127457.
